Hey, just so you know, these numbers are from paper PMC10819243.

Kindly supply the reported Selectivity Index A-549 values for the records listed here.
System: A-549
Experiment: MTT assay, A-549
Assay type: cell-based
Settings: IC50 for normal cell line (HDF)/IC50 for A-549
Respond using a number only.

## Task For the compound shown here, CC1(C)CC[C@]2(C(=O)N3CCOCC3)CC[C@]3(C)C(=CCC4[C@@]5(C)CC/C(=N\OC(=O)CCl)C(C)(C)C5CC[C@]43C)C2C1 (stereo partly drawn) , give the reported Selectivity Index A-549.
## Result 2.02

## Task What value of Selectivity Index A-549 has been recorded for this entry: COC(=O)[C@]12CCC(C)(C)CC1C1=CCC3[C@@]4(C)CC/C(=N\OC(=O)c5ccc([N+](=O)[O-])cc5)C(C)(C)C4CC[C@@]3(C)[C@]1(C)CC2 (stereo partly drawn)
## Result 1.89

## Task Please give the measured Selectivity Index A-549 for this compound: COC(=O)[C@]12CCC(C)(C)CC1C1=CCC3[C@@]4(C)CC/C(=N\OC(C)=O)C(C)(C)C4CC[C@@]3(C)[C@]1(C)CC2 (stereo partly drawn)
## Result 2.74

====

System: HDF (normal fibroblast cell line)
Test: MTT assay, HDF
Format: cell-based, human
Conditions: Homo sapiens, Fibroblast, MTT assay; HDF normal fibroblast cell line; (±s) standard deviation
For each of the compounds below, state its IC50.
Write the answer as a number in µM, unit excluded.

## Task Returns the measured IC50 for the input compound. Input: CC1(C)CC[C@]2(C(=O)O)CC[C@]3(C)C(=CC[C@@H]4[C@@]5(C)CC[C@H](O)C(C)(C)[C@@H]5CC[C@]43C)[C@@H]2C1 [Compound 1, oleanolic acid, reference compound]
## Result 17.9

## Task Quick one: IC50 for CC(=O)O/N=C1\CC[C@@]2(C)C(CC[C@]3(C)C2CC=C2C4CC(C)(C)CC[C@]4(C(=O)N4CCOCC4)CC[C@]23C)C1(C)C (some centres unmarked) [Compound 7a] ?
## Result 116

## Task Recorded IC50 for COC(=O)[C@]12CCC(C)(C)CC1C1=CCC3[C@@]4(C)CC/C(=N\OC(=O)c5cc([N+](=O)[O-])cc([N+](=O)[O-])c5)C(C)(C)C4CC[C@@]3(C)[C@]1(C)CC2 (some centres unmarked) [Compound 5g] , please?
## Result 6.22

## Task Quick one: IC50 for CC1(C)CC[C@]2(C(=O)N3CCOCC3)CC[C@]3(C)C(=CCC4[C@@]5(C)CC/C(=N\OC(=O)c6cccc([N+](=O)[O-])c6)C(C)(C)C5CC[C@]43C)C2C1 (some centres unmarked) [Compound 7e] ?
## Result 28

====

Tested on: HDF (normal fibroblast cell line)
Assay: MTT assay, HDF
Type: cell-based, human
Conditions: MTT assay; HDF normal fibroblast cell line; (±s) standard deviation
Please provide measured IC50 for the entries that follow.
Field note: include the unit after the figure.

## Task Can you share its IC50? I mean this compound: COC(=O)[C@]12CCC(C)(C)CC1C1=CC(=O)C3[C@@]4(C)CC/C(=N\OC(=O)c5cccc([N+](=O)[O-])c5)C(C)(C)C4CC[C@@]3(C)[C@]1(C)CC2 (stereo partly shown)
## Result 97 µM

## Task If you can, please state the reported IC50 value of CCC(=O)O/N=C1\CC[C@@]2(C)C(CC[C@]3(C)C2C(=O)C=C2C4CC(C)(C)CC[C@]4(C(=O)OC)CC[C@]23C)C1(C)C (stereo partly shown) .
## Result 49 µM

## Task Look up IC50 for this compound: COC(=O)[C@]12CCC(C)(C)CC1C1=CC(=O)C3[C@@]4(C)CC/C(=N\OC(=O)c5ccccc5)C(C)(C)C4CC[C@@]3(C)[C@]1(C)CC2 (stereo partly shown)
## Result 42 µM

## Task Any idea what IC50 was measured for COC(=O)[C@]12CCC(C)(C)CC1C1=CC(=O)C3[C@@]4(C)CC/C(=N\OC(C)=O)C(C)(C)C4CC[C@@]3(C)[C@]1(C)CC2 (stereo partly shown) ?
## Result 49.1 µM

====

System: HDF (normal fibroblast cell line)
Test: MTT assay, HDF
Type: cell-based, human
Details: Homo sapiens, Fibroblast, MTT assay; HDF normal fibroblast cell line; (±s) standard deviation
Mark each entry 1 if its IC50 sits below 70 µM, and 0 for all others.

## Task Does this compound meet the criterion IC50 < 70 µM? COC(=O)C12CCC(C)(C)CC1C1=CC(=O)C3C4(C)CCC(=NO)C(C)(C)C4CCC3(C)C1(C)CC2 (stereo not drawn) [Compound 3]
## Result 1

## Task Consider the compound CC1(C)CC[C@]2(C(=O)N3CCOCC3)CC[C@]3(C)C(=CCC4[C@@]5(C)CC/C(=N\OC(=O)c6ccccc6)C(C)(C)C5CC[C@]43C)C2C1 (stereo partly drawn) [Compound 7d] . Is its IC50 strictly less than 70 µM?
## Result 1

## Task Criterion: IC50 strictly below 70 µM. Is it met by COC(=O)[C@]12CCC(C)(C)CC1C1=CCC3[C@@]4(C)CC/C(=N\OC(=O)c5ccccc5)C(C)(C)C4CC[C@@]3(C)[C@]1(C)CC2 (stereo partly drawn) [Compound 5d] ?
## Result 0

## Task Determine whether this compound shows IC50 lower than 70 µM (ties excluded): COC(=O)[C@]12CCC(C)(C)CC1C1=CCC3[C@@]4(C)CC/C(=N\OC(=O)c5cccc([N+](=O)[O-])c5)C(C)(C)C4CC[C@@]3(C)[C@]1(C)CC2 (stereo partly drawn) [Compound 5e]
## Result 1

## Task Threshold test, IC50 < 70 µM: COC(=O)[C@]12CCC(C)(C)CC1C1=CC(=O)C3[C@@]4(C)CC/C(=N\OC(=O)CCl)C(C)(C)C4CC[C@@]3(C)[C@]1(C)CC2 (stereo partly drawn) [Compound 6b]
## Result 0

====

Exercise: state measured IC50 for each of the compounds provided.
Test system: HDF (normal fibroblast cell line)
Test: MTT assay, HDF
Format: cell-based, human
Conditions: Homo sapiens, Fibroblast, MTT assay; HDF normal fibroblast cell line; (±s) standard deviation

## Task // IC50 lookup, key: CC1(C)CC[C@]2(C(=O)N3CCOCC3)CC[C@]3(C)C(=CCC4[C@@]5(C)CC/C(=N\OC(=O)c6cc([N+](=O)[O-])cc([N+](=O)[O-])c6)C(C)(C)C5CC[C@]43C)C2C1 (some centres unmarked) [Compound 7g]
## Result 9.16 µM

## Task Given COC(=O)[C@]12CCC(C)(C)CC1C1=CC(=O)C3[C@@]4(C)CC/C(=N\OC(=O)c5cccc([N+](=O)[O-])c5)C(C)(C)C4CC[C@@]3(C)[C@]1(C)CC2 (some centres unmarked) [Compound 6e] , state its recorded IC50.
## Result ~97 µM

## Task Fill in the blank: the reported IC50 of CC1(C)CC[C@]2(C(=O)N3CCOCC3)CC[C@]3(C)C(=CCC4[C@@]5(C)CC/C(=N\OC(=O)c6ccc([N+](=O)[O-])cc6)C(C)(C)C5CC[C@]43C)C2C1 (some centres unmarked) [Compound 7f] is ____.
## Result 85.1 µM

## Task Give its IC50 value. Item: COC(=O)[C@]12CCC(C)(C)CC1C1=CC(=O)C3[C@@]4(C)CC/C(=N\OC(=O)c5cc([N+](=O)[O-])cc([N+](=O)[O-])c5)C(C)(C)C4CC[C@@]3(C)[C@]1(C)CC2 (some centres unmarked) [Compound 6g]
## Result 7.27 µM

## Task Look up IC50: CCC(=O)O/N=C1\CC[C@@]2(C)C(CC[C@]3(C)C2CC=C2C4CC(C)(C)CC[C@]4(C(=O)N4CCOCC4)CC[C@]23C)C1(C)C (some centres unmarked) [Compound 7c]
## Result 179 µM

====

Test system: KB
Test: MTT assay, KB
Assay type: cell-based
Details: Homo sapiens; MTT assay; KB nasopharynx carcinoma; (±s) standard deviation
test-readout: IC50 (µM)
Response body: numeric value in µM, unit text excluded.

## Task Can you share its IC50? I mean this compound: CCC(=O)O/N=C1\CC[C@@]2(C)C(CC[C@]3(C)C2CC=C2C4CC(C)(C)CC[C@]4(C(=O)OC)CC[C@]23C)C1(C)C (stereo partly drawn)
## Result 38.8

## Task So what's the measured IC50 for this one? COC(=O)[C@]12CCC(C)(C)CC1C1=CCC3[C@@]4(C)CC/C(=N\OC(=O)c5ccccc5)C(C)(C)C4CC[C@@]3(C)[C@]1(C)CC2 (stereo partly drawn)
## Result 83.2

## Task Requested field: IC50. Item: CC1(C)CC[C@]2(C(=O)N3CCOCC3)CC[C@]3(C)C(=CCC4[C@@]5(C)CC/C(=N\OC(=O)c6ccccc6)C(C)(C)C5CC[C@]43C)C2C1 (stereo partly drawn)
## Result 45.9

====

Consider the following molecules; for each one, report its IC50.
Test system: KB
Experiment: MTT assay, KB
Type: cell-based
Conditions: Homo sapiens; MTT assay; KB nasopharynx carcinoma; (±s) standard deviation
Numeric answer only, unit µM assumed.

## Task For COC(=O)[C@]12CCC(C)(C)CC1C1=CC(=O)C3[C@@]4(C)CC/C(=N\OC(=O)c5cc([N+](=O)[O-])cc([N+](=O)[O-])c5)C(C)(C)C4CC[C@@]3(C)[C@]1(C)CC2 (stereo partly drawn) , what is its reported IC50?
## Result 8.98

## Task What does the data say about its IC50? Entry: COC(=O)[C@]12CCC(C)(C)CC1C1=CC(=O)C3[C@@]4(C)CC/C(=N\OC(=O)c5ccccc5)C(C)(C)C4CC[C@@]3(C)[C@]1(C)CC2 (stereo partly drawn)
## Result 27.2

## Task Consider the molecule shown here: CCC(=O)O/N=C1\CC[C@@]2(C)C(CC[C@]3(C)C2C(=O)C=C2C4CC(C)(C)CC[C@]4(C(=O)OC)CC[C@]23C)C1(C)C (stereo partly drawn) What is its recorded IC50?
## Result 24.8

## Task Item under review: COC(=O)[C@]12CCC(C)(C)CC1C1=CCC3[C@@]4(C)CC/C(=N\OC(=O)c5cccc([N+](=O)[O-])c5)C(C)(C)C4CC[C@@]3(C)[C@]1(C)CC2 (stereo partly drawn) . Reported IC50?
## Result 23.9

## Task I am curious: what IC50 value has been reported for COC(=O)[C@]12CCC(C)(C)CC1C1=CC(=O)C3[C@@]4(C)CC/C(=N\OC(=O)c5ccc([N+](=O)[O-])cc5)C(C)(C)C4CC[C@@]3(C)[C@]1(C)CC2 (stereo partly drawn) ?
## Result 26.3

## Task What IC50 value was documented for this molecule, COC(=O)[C@]12CCC(C)(C)CC1C1=CCC3[C@@]4(C)CC/C(=N\OC(=O)CCl)C(C)(C)C4CC[C@@]3(C)[C@]1(C)CC2 (stereo partly drawn) ?
## Result 18.4

## Task Look at this molecule and give its reported IC50. CC(=O)O/N=C1\CC[C@@]2(C)C(CC[C@]3(C)C2CC=C2C4CC(C)(C)CC[C@]4(C(=O)N4CCOCC4)CC[C@]23C)C1(C)C (stereo partly drawn)
## Result 81.5

## Task Please look up its IC50: COC(=O)[C@]12CCC(C)(C)CC1C1=CCC3[C@@]4(C)CC/C(=N\OC(C)=O)C(C)(C)C4CC[C@@]3(C)[C@]1(C)CC2 (stereo partly drawn)
## Result 11.4

## Task Return reported IC50; argument: COC(=O)[C@]12CCC(C)(C)CC1C1=CC(=O)C3[C@@]4(C)CC/C(=N\OC(=O)CCl)C(C)(C)C4CC[C@@]3(C)[C@]1(C)CC2 (stereo partly drawn)
## Result 61

## Task Report IC50 for COC(=O)[C@]12CCC(C)(C)CC1C1=CC(=O)C3[C@@]4(C)CC/C(=N\OC(C)=O)C(C)(C)C4CC[C@@]3(C)[C@]1(C)CC2 (stereo partly drawn) please.
## Result 27.9

## Task I have this molecule here, CC1(C)CC[C@]2(C(=O)N3CCOCC3)CC[C@]3(C)C(=CCC4[C@@]5(C)CC/C(=N\OC(=O)c6ccc([N+](=O)[O-])cc6)C(C)(C)C5CC[C@]43C)C2C1 (stereo partly drawn) , and I need its recorded IC50.
## Result 61.5

## Task # get_value(readout='IC50', item= COC(=O)C12CCC(C)(C)CC1C1=CC(=O)C3C4(C)CCC(=NO)C(C)(C)C4CCC3(C)C1(C)CC2 (stereo not drawn) )
## Result 60.3
